Target: UniProt P57059
Sequence (P57059 whole entry, looked up): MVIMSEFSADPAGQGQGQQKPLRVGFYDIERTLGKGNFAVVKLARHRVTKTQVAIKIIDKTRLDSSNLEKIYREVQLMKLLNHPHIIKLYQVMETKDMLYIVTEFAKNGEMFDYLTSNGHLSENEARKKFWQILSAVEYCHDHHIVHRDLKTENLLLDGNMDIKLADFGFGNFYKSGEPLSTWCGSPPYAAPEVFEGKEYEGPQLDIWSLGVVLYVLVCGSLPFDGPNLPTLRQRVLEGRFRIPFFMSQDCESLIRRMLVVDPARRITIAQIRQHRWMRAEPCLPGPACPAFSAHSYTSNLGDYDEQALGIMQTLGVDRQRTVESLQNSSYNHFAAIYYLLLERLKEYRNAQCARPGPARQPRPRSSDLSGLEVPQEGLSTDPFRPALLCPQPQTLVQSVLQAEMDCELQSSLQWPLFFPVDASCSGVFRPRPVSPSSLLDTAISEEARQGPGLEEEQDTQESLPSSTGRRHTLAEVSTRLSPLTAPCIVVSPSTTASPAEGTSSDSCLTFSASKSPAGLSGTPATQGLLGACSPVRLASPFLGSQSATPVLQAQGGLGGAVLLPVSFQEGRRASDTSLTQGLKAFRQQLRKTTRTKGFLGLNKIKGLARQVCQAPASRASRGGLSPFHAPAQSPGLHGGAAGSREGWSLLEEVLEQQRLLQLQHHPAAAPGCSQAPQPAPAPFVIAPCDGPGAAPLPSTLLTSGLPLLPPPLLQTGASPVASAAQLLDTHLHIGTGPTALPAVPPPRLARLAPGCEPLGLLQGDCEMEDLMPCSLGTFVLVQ
Assay: KINOMEscan competition binding
Details: compound 10.0 µM
readout name: kinase still bound, per cent of control (%)
Answers are plain numbers, in %.

[
  {
    "smiles record": "CNC(=O)c1ccc(Nc2cc(Nc3ccccc3S(=O)(=O)C(C)C)c3cc[nH]c3n2)nc1",
    "kinase still bound, per cent of control (%)": 11
  }
]

Hi! Can you tell me kinase still bound, per cent of control for each of these compounds?
1. COc1cc(N2CCN(C)CC2)ccc1Nc1ncc2c(n1)N(C)c1ccccc1C(=O)N2C
2. O=C1NC(=O)/C(=C/c2ccc3nccc(-c4ccncc4)c3c2)S1
3. CS(=O)(=O)N1CCN(Cc2cc3nc(-c4cccc5[nH]ncc45)nc(N4CCOCC4)c3s2)CC1
4. C=CC(=O)Nc1cc(-n2c(=O)ccc3cnc4ccc(-c5cn[nH]c5)cc4c32)ccc1C
5. NC(=O)Nc1cc(-c2cccc(F)c2)sc1C(=O)N[C@@H]1CCCNC1
6. C[C@@H](Oc1cc(-c2cnn(C3CCNCC3)c2)cnc1N)c1c(Cl)ccc(F)c1Cl
7. CN(C)C/C=C/C(=O)Nc1ccc(C(=O)Nc2cccc(Nc3nccc(-c4cccnc4)n3)c2)cc1

1. 100
2. 96
3. 100
4. 77
5. 0.3
6. 24
7. 100

====

For each of the compounds below, state its kinase still bound, per cent of control.
Target: RPS6KB1 (human)
Experiment: KINOMEscan competition binding
Conditions: compound 10.0 µM
Numbers only, in %.

[
  {
    "smiles record": "COc1cc2ncnc(-n3nc(-c4ccccn4)nc3N)c2cc1OC",
    "measured target": "RPS6KB1 (human)",
    "readout name": "kinase still bound, per cent of control",
    "output unit": "%",
    "experimental value": 2.6
  },
  {
    "smiles record": "COc1cc(C(=O)N2CCC(N3CCN(C)CC3)CC2)ccc1Nc1ncc2c(n1)N(C)c1ccccc1C(=O)N2C",
    "measured target": "RPS6KB1 (human)",
    "readout name": "kinase still bound, per cent of control",
    "output unit": "%",
    "experimental value": 100
  },
  {
    "smiles record": "O=C(Nc1cccc(Nc2ncc(Br)c(NCCc3cnc[nH]3)n2)c1)N1CCCC1",
    "measured target": "RPS6KB1 (human)",
    "readout name": "kinase still bound, per cent of control",
    "output unit": "%",
    "experimental value": 3.2
  },
  {
    "smiles record": "O=C1NC(=O)/C(=C/c2ccc3nccc(-c4ccncc4)c3c2)S1",
    "measured target": "RPS6KB1 (human)",
    "readout name": "kinase still bound, per cent of control",
    "output unit": "%",
    "experimental value": 53
  }
]

Query compound follows.
Request the reported kinase still bound, per cent of control associated with `COc1ccc(N(C(=O)Oc2c(C)cccc2C)c2ccnc(Nc3ccc(N4CCN(C)CC4)cc3)n2)c(OC)c1`
72

====

Biological target: MYO3A (human) (UniProt Q8NEV4)
Sequence (Q8NEV4 whole entry, looked up): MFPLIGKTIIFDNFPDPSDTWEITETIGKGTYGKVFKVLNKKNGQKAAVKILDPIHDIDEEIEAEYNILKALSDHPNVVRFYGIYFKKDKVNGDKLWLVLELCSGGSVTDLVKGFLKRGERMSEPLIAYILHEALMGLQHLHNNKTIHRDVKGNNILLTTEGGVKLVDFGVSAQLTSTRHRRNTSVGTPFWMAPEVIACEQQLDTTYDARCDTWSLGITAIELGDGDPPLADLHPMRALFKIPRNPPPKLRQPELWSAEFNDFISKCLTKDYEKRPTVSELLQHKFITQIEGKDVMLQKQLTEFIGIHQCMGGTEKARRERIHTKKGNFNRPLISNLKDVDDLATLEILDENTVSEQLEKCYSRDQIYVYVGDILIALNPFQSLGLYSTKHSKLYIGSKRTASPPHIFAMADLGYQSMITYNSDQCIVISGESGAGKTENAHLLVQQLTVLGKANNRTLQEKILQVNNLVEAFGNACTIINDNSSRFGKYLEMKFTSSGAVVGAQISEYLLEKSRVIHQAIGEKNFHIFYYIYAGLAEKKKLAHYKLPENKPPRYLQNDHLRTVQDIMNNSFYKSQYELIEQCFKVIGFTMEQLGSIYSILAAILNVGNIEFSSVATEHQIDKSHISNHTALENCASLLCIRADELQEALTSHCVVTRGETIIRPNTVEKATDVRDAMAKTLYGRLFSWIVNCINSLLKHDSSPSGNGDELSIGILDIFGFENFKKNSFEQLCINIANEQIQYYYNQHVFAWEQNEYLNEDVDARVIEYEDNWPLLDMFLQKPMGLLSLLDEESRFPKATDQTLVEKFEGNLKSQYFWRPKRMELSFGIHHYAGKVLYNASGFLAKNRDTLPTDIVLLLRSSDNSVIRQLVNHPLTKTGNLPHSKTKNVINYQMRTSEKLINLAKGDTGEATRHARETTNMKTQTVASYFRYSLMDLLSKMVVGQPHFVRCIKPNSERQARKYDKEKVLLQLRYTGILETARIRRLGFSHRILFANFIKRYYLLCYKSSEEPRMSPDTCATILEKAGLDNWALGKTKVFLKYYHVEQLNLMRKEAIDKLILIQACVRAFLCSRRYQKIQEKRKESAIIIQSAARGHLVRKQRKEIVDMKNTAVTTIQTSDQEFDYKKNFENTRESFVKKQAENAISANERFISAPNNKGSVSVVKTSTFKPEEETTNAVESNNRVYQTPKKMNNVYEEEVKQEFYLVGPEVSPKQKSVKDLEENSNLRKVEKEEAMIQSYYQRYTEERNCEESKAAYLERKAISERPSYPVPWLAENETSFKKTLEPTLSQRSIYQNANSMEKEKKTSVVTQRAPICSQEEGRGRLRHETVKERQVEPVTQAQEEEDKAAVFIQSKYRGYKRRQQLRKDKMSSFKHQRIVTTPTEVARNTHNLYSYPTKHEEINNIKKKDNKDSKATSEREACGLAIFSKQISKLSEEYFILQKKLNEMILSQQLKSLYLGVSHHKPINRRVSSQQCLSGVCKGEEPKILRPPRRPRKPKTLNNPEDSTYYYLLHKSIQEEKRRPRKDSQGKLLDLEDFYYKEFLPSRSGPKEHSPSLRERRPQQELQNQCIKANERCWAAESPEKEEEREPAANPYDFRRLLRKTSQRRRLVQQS
Test: KINOMEscan competition binding
Details: compound 10.0 µM
Exercise: state measured kinase still bound, per cent of control for each of the compounds provided.

Known results for compounds:
[
  {
    "smiles record": "CNC(=O)c1cc(Oc2ccc(NC(=O)Nc3ccc(Cl)c(C(F)(F)F)c3)cc2)ccn1",
    "kinase still bound, per cent of control": "67%"
  },
  {
    "smiles record": "Cc1n[nH]c2ccc(-c3cncc(OC[C@@H](N)Cc4c[nH]c5ccccc45)c3)cc12",
    "kinase still bound, per cent of control": "100%"
  },
  {
    "smiles record": "C=CC(=O)Nc1cc(-n2c(=O)ccc3cnc4ccc(-c5cn[nH]c5)cc4c32)ccc1C",
    "kinase still bound, per cent of control": "94%"
  },
  {
    "smiles record": "COc1cc2ncn(-c3cc(OCc4ccccc4C(F)(F)F)c(C(N)=O)s3)c2cc1OC",
    "kinase still bound, per cent of control": "81%"
  }
]

Query compound follows.
Requested field: kinase still bound, per cent of control. Item: `N#CCNC(=O)c1ccc(-c2ccnc(Nc3ccc(N4CCOCC4)cc3)n2)cc1`
100%
